target: CYP2C19 (Homo sapiens, UniProt P33261); construct: Pooled human liver microsomes (HLM, LOT 32556) were purchased from BD Gentest Corporation; tissue BD Gentest Corporation LOT 32556; host or cells: pooled human liver microsomes; experiment: CYP inhibition in human liver microsomes, substrate cocktail, LC-MS/MS (S-mephenytoin); assay type: in vitro ADME; conditions: metabolite 4-hydroxymephenytoin, 95% CI in brackets, read-out: IC50 for HLM, CYP2C19
Sequence (P33261 whole entry): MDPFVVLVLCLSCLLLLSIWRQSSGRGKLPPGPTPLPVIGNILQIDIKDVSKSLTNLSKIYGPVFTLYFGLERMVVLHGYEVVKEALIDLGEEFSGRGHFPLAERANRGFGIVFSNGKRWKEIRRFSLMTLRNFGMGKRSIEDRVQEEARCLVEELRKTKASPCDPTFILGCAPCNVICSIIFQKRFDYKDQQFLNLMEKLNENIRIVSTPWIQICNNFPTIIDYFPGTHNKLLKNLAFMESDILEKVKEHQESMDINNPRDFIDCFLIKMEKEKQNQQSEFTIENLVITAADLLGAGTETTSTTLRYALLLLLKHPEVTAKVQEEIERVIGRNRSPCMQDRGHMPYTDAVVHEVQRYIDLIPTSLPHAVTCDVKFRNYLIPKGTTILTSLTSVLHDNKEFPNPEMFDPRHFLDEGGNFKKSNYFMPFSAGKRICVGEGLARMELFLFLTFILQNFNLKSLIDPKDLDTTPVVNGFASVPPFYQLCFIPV
REPORTED_PROPERTY: IC50 (µM)
Give bare numbers, in µM.

The recorded IC50 for O=C(O)[C@H]1O[C@@H](Oc2cc3oc(-c4ccc(O)cc4)cc(=O)c3c(O)c2O)[C@H](O)[C@@H](O)[C@@H]1O [scutellarin, Scutellarin] is 63.8

The measured values listed here are drawn from paper PMC6271944.
